target.entity: T1, recombinant human IL-6 (human, UniProt P05231 30-212)
T1 construct: Bought from R&D Systems (206-IL-010); Biotinylated or coupled to beads in some assays; also called hIL-6; rhIL-6
experiment: KinExA 3000
measured.quantity: Improvement Ratio of KD (as compared to chimeric ab) (fold)
Value expressed in fold; do not type the unit.

>>> reported_result("AME-22a (antibody, V domains shown, Tested as IgG; also called 150) VH: EVQLVESGGGLVQPGGSLRLSCAASGFQFSPFAMSWVRQAPGKGLEWVAKISPGGSWTYYPDTDTGRFTISRDNAKNSLYLQMNSLRAEDTAVYYCARQLWGYYALDFWGQGTTVTVSS VL: EIVLTQSPATLSLSPGERATLSCSASYSVSYMYWYQQKPGQAPRLLIYDFSNLASGIPARFSGSGSGTDFTLTISSLEPEDFAVYYCMQWSGYPYTFGGGTKVEIK")
16.7

Query string: What value of measured Improvement Ratio of KD (as compared to chimeric ab) is listed for AME-16 (antibody, V domains shown, Tested as IgG; also called AME-A16; 106) VH: EVQLVESGGGLVQPGGSLRLSCAASGFTFSSFAMSWVRQAPGKGLEWVAKISPGGSYTYYPDTVTGRFTISRDNAKNSLYLQMNSLRAEDTAVYYCARQLWGYYALDYWGQGTTVTVSS VL: EIVLTQSPATLSLSPGERATLSCSASSSVSYMYWYQQKPGQAPRLLIYDTSNLASGIPARFSGSGSGTDFTLTISSLEPEDFAVYYCSQWSGYPYTFGGGTKVEIK ?
Result string: 3.6

Query string: // next record AME-23a (antibody, V domains shown, Tested as IgG; also called 143) VH: EVQLVESGGGLVQPGGSLRLSCAASGFQFSSFAMSWVRQAPGKGLEWVAKISPGGSYTYYSDTVTGRFTISRDNAKNSLYLQMNSLRAEDTAVYYCARQLWGYYALDFWGQGTTVTVSS VL: EIVLTQSPATLSLSPGERATLSCSASYSVSYMYWYQQKPGQAPRLLIYDMSNLASGIPARFSGSGSGTDFTLTISSLEPEDFAVYYCMQWSGYPYTFGGGTKVEIK
Result string: 500

Data provenance is patent US20060257407A1.
